- test.protocol: Human HepG2 cell viability assay in 384 well format
- Type: toxicity, cell-based
- Set-up: dose 125 nL, time 70.5 hour; concentration not given beside the values
- recorded.conditions: HepG2 cells, read-out: Inhibition
Answer each item with its documented cytotoxicity at 70.5 h.
Give bare numbers, in %.

Illustrative cases are given below, each with its answer.
INSERT INTO results (compound, value_kind, value_reported) VALUES
  ('Cc1cccc(C(C(=O)NCCc2nc(C)cc(=O)[nH]2)N(C)C)c1 (stereo unspecified)', 'cytotoxicity at 70.5 h', 25.6),
  ('CCn1ccnc1CN1CCC(Oc2cccc(F)c2)(C(=O)O)CC1', 'cytotoxicity at 70.5 h', -4.69),
  ('Cc1cc(N2CCc3c(ncn3C3CC3)C2)nc(N)n1', 'cytotoxicity at 70.5 h', -7.99);

Return reported cytotoxicity at 70.5 h values for all items listed beneath this line.
1. Cc1nc(C(C)NC(=O)NCc2nccn2CC(C)C)cs1 (stereo unspecified)
2. Cc1c(COC(C)C)cccc1NC(=O)N1CCCC(CO)C1 (stereo unspecified)
3. CC(=O)N1CCCN(c2nccc(-c3cn(C)nc3C)n2)CC1

4.05
-3.17
-2.77
